target-desc: T1, IL-18 receptors on HEK-Blue IL-18 reporter cells (UniProt Q13478 19-541; O95256 20-599, limits assumed); also: unit not given here
T1 sequence (looked up) 1: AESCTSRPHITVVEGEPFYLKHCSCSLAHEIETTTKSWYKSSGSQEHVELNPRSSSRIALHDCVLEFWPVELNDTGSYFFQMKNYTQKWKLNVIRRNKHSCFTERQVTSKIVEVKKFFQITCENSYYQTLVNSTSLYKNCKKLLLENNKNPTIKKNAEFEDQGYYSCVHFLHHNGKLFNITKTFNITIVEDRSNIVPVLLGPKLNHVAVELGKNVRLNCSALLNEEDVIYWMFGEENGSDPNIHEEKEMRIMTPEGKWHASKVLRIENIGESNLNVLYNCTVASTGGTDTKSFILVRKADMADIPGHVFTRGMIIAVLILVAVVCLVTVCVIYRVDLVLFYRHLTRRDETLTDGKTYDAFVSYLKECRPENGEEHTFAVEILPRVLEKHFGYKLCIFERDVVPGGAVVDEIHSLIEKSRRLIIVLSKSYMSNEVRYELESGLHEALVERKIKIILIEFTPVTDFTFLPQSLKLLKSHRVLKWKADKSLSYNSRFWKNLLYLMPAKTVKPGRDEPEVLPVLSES
T1 sequence (looked up) 2: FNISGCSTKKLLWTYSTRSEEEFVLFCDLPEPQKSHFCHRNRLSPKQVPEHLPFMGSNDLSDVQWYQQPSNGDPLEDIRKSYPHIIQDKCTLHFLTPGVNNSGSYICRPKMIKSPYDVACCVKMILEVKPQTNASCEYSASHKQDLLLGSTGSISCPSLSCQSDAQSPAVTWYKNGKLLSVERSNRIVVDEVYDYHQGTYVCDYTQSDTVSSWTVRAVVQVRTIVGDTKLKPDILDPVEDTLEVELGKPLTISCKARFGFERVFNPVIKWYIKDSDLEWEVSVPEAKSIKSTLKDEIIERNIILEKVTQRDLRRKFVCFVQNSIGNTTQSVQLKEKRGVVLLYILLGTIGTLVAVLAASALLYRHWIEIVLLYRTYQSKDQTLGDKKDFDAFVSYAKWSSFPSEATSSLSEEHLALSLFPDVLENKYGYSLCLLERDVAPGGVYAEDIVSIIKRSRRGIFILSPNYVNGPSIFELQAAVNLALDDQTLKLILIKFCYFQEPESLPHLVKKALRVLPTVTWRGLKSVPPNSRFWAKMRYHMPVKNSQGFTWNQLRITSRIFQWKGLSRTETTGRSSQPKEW
assay-explanation: cell-based or functional assay
Field: Activity, No BP, DF-100000. Provide a value for each of the binders that follow.
Respond using a number only.

The reported value for IL-18 variant G3H, E6Q, K53N, D54S, S55P, T63A, N91I, R104S (ligand) YFHKLQSKLSVIRNLNDQVLFIDQGNRPLFEDMTDSDMRDNAPRTIFIISMYNSPQPRGMAVAISVKSEKISTLSSENKIISFKEMNPPDIIKDTKSDIIFFQSSVPGHDNKMQFESSSYEGYFLASEKERDLFKLILKKEDELGDRSIMFTVQNED in terms of Activity, No BP, DF-100000 is 0.18

// sample IL-18 variant G3E, E6G, N91M, R104A (ligand) YFEKLGSKLSVIRNLNDQVLFIDQGNRPLFEDMTDSDMRDNAPRTIFIISMYKDSQPRGMAVTISVKSEKISTLSSENKIISFKEMNPPDMIKDTKSDIIFFQASVPGHDNKMQFESSSYEGYFLASEKERDLFKLILKKEDELGDRSIMFTVQNED , its Activity, No BP, DF-100000 was 2.05

# Activity, No BP, DF-100000 of IL-18 variant G3P, E6K, D54R, S55P, T63A, N91V (ligand) YFPKLKSKLSVIRNLNDQVLFIDQGNRPLFEDMTDSDMRDNAPRTIFIISMYKRPQPRGMAVAISVKSEKISTLSSENKIISFKEMNPPDVIKDTKSDIIFFQRSVPGHDNKMQFESSSYEGYFLASEKERDLFKLILKKEDELGDRSIMFTVQNED = 1.31
